test: Binding affinity to CTNI-CTNC N-domain chimera (unknown origin) assessed as dissociation constant; set-up: species or system Homo sapiens
Endpoint Name: Kd (µM)
Answers are plain numbers, in µM.

Solved cases below.
> print(dat)
                                 smiles.str  reported
1  NCCCCCCCCNS(=O)(=O)c1cccc(-c2ccc(F)cc2F)c1        60
2  NCCCCCCCNS(=O)(=O)c1cccc(-c2ccc(F)cc2F)c1       120
3  NCCCCCCNS(=O)(=O)c1cccc(-c2ccc(F)cc2F)c1       200

Item under review: NCCCCCCNS(=O)(=O)c1cccc2c(Cl)cccc12 . Reported Kd? 470
